All values here come from PubChem BioAssay (NCI).

# System: RPMI-8226 leukemia
# Method description: NCI-60 one-dose screen, 48 h (100 = growth as untreated, 0 = no growth, -100 = all killed)
# Condition: 10 µM unless noted
# Method: Growth inhibition of the RPMI-8226 human tumor cell line is measured as a screen for anti-cancer activity. Cells are grown in 96 well plates and exposed to the test compound for 48 hours. Compounds are tested at a single concentration, which is 10^-5 M for most compounds. The reported endpoint is percent growth (GI% or GIPRCNT), where numbers from 0 - 100% represent growth inhibition, and numbers from -100% - 0 represent cell death. For example, a value of 40 represents 60% growth inhibition. […]
This is part of a sample that, as a whole, favours compounds with a hit. Of some 83,000 tested, about 20% had one in any assay.
Parameter growth: see the listing below.
Report only the number, with the unit % understood.

O=[N+]([O-])c1ccc(N=Nc2ccc(O)cc2O)cc1 ... 43
CCC(CC)COC(=O)c1ccc(O)c(O)c1 ... 35.1
CN(Cc1cnc2nc(N)nc(N)c2n1)c1ccc(C(=O)NC(CCC(=O)O)C(=O)O)cc1 (stereo not given) ... 37.3
CN(C)CCOc1ccc2c(c1)C(=O)/C(=C\c1ncc([N+](=O)[O-])n1C)C2 ... 9.88

query: For O=C1c2ccccc2C(=O)N1c1ccccc1 , what is its reported growth?
result: 119

query: Okay, and Oc1c(Br)c(Br)c(O)c(Br)c1Br ?
result: 104

query: Can you check CCCCCCCCCCCCCCCCN(CC)CC next?
result: -60.1

query: Same lookup for N#CC1C(=O)SC2c3ccccc3C(=O)c3ccccc3C12 (stereo not given) , please.
result: 94.6

query: Queued: c1ccc2c(c1)Nc1cc3ccccc3cc1N2
result: 18.8

query: Continue with CN(C)c1ccc(/C=N/N=C(\C#N)[S][Sn]([Cl])([c]2ccccc2)[c]2ccccc2)cc1
result: -13.8

query: Queued: Cn1c2ccccc2c2nnc(N/N=C/c3ccccn3)nc21
result: -14.2

query: Field entry: CCN1/C(=C\c2cc[n+](CC)c3ccccc23)C=Cc2ccccc21
result: 12.6

query: Proceed to C=C(Cl)C(=NC(C)(C)C)Nc1ccccc1C
result: 75.1

query: Same question, NC(N)=N/N=C/c1ccc([N+](=O)[O-])o1 this time
result: 78.7

====

# Tested on: SF-539 CNS
# Method description: NCI-60 one-dose screen, 48 h
# Condition: 10 µM unless noted
# Protocol: Cells are grown in 96 well plates and exposed to the test compound for 48 hours. Compounds are tested at a single concentration, which is 10^-5 M for most compounds. The reported endpoint is percent growth (GI% or GIPRCNT), where numbers from 0 - 100% represent growth inhibition, and numbers from -100% - 0 represent cell death. For example, a value of 40 represents 60% growth inhibition. A value of 0 means no net growth occurred over the course of the experiment. […]
About 83,000 compounds went through this panel and 20% of them were active in at least one assay; those are over-represented in the sample as a whole. Activity calls are given as the source filed them. Rule for the calls: active = growth percent below 10; inactive = the rest.
Answer with one of the outcomes given here: 1 for active, 0 for inactive

Here are 4 compounds together with their reported answers.
C[n+]1c(/C=C/c2ccc([N+](=O)[O-])cc2)ccc2ccccc21 ... 0
CCC1OC(OC)C=CC1=O (stereo not given) ... 0
O=[N+]([O-])c1ccc2c(N=Nc3ccc4ccccc4c3O)c(O)cc(S(=O)(=O)O)c2c1 ... 0
O=C1OCc2cccc3cccc1c23 ... 0

query: Any idea what this test logged for O=[N+]([O-])c1ccc(N=Nc2ccc(O)cc2O)cc1 ?
result: 0

query: Proceed to O=C1C2=C(Nc3cc([N+](=O)[O-])ccc3N2)OC1c1c2ccccc2cc2ccccc12 (stereo not given)
result: 0

query: And what about the compound Cn1c2ccccc2c2nnc(N/N=C/c3ccccn3)nc21 ?
result: 1

query: Then what about the compound CCCCCCCCCCCCCCNCc1ccccc1 ?
result: 0

query: Queued: COc1ccc2nc3cc(Cl)ccc3c(NCCNc3c4ccc(Cl)cc4nc4ccc(OC)cc34)c2c1
result: 1

query: What about CN(C)c1ccc(/C=N/N=C(\C#N)[S][Sn]([Cl])([c]2ccccc2)[c]2ccccc2)cc1 ?
result: 1

query: Try this compound too: CN(C)C(=O)SC1=C(c2c(Cl)cccc2Cl)C(=O)c2ccccc21
result: 0

====

# System: OVCAR-8 ovarian
# Method description: NCI-60 one-dose screen, 48 h
# Condition: 10 µM unless noted
Compounds without any hit were thinned out: in the full panel of roughly 83,000, 20% have a hit. The source made the active and inactive calls. The calls were made as follows: active = growth percent below 10; inactive = the rest.
Classes to choose from: TRUE (active), FALSE (inactive)

These solved cases illustrate the format of a correct answer.
O=C1C2=C(Nc3cc([N+](=O)[O-])ccc3N2)OC1c1c2ccccc2cc2ccccc12 (configuration not stated) ... FALSE
CN(C)c1ccc(C(=C2C=CC(=[N+](C)C)C=C2)c2ccc(N(C)C)cc2)cc1 (tested in a mixture with another compound) ... TRUE
N#CSCC(=O)c1ccc(Cl)cc1 ... FALSE
Cc1ccc2c(ccc3c[n+]4c5ccccc5ccc4n32)c1 ... TRUE
O=C(O)c1ccc2c3c(ncnc13)-c1ccccc1C2=O ... FALSE
CCCCCCCCCCCCCCNCc1ccccc1 ... FALSE
O=[N+]([O-])c1ccc2c(N=Nc3ccc4ccccc4c3O)c(O)cc(S(=O)(=O)O)c2c1 ... FALSE
O=C1c2ccccc2C(=O)c2sc(Nc3cccc(Cl)c3)nc21 ... TRUE

query: Answer briefly: the call reported for C=CCOc1ccc(N=NC(C#N)C#N)cc1 in this assay.
result: FALSE

====

# Test system: KM12 colon
# Method description: NCI-60 one-dose screen, 48 h (100 = growth as untreated, 0 = no growth, -100 = all killed)
# Condition: 10 µM unless noted
Compounds without any hit were thinned out: in the full panel of roughly 83,000, 20% have a hit. The source made the active and inactive calls. The calls were made as follows: active = growth percent below 10; inactive = the rest.
The entries below are paired with their reported growth.

Illustrative cases are given below, each with its answer.
O=C1C2=C(Nc3cc([N+](=O)[O-])ccc3N2)OC1c1c2ccccc2cc2ccccc12 (stereo unspecified) ... 16.7% (inactive)
CNc1ccc(N)cc1 ... 107% (inactive)
O=[N+]([O-])c1ccc(N=Nc2ccc(O)cc2O)cc1 ... 64.3% (inactive)
CC(C)c1ccc2nc3ccc(C(=O)NCCN4CCN(c5ccccc5)CC4)cn3c(=O)c2c1 ... 67.2% (inactive)
CCCCCCCCCCCCCCCCN(CC)CC ... -57% (active)
Nc1ccc(SSc2ccc(N)cc2)cc1 ... 86.1% (inactive)

query: growth lookup needed for O=C(CC1(O)C(=O)Nc2c(Cl)ccc(Cl)c21)c1ccc(Cl)cc1Cl (stereo unspecified) , thanks.
result: 102% (inactive)

query: // next record COc1ccc(N=N/N=c2\sc3cc(OC)ccc3n2C)cc1
result: 95% (inactive)

query: Do the same for CCN1/C(=C\c2cc[n+](CC)c3ccccc23)C=Cc2ccccc21 please
result: 1.57% (active)

query: Would you kindly repeat that for CN(C)C(=O)SC1=C(c2c(Cl)cccc2Cl)C(=O)c2ccccc21 ?
result: 99.4% (inactive)

query: Now try C[n+]1c(/C=C/c2ccc([N+](=O)[O-])cc2)ccc2ccccc21 .
result: 80.8% (inactive)

====

The molecules listed here are annotated with their growth.
# Tested on: NCI-H23 lung
# Method description: NCI-60 one-dose screen, 48 h (100 = growth as untreated, 0 = no growth, -100 = all killed)
# Condition: 10 µM unless noted
# Description: Growth inhibition of the NCI-H23 human Non-Small Cell Lung tumor cell line is measured as a screen for anti-cancer activity. Cells are grown in 96 well plates and exposed to the test compound for 48 hours. Compounds are tested at a single concentration, which is 10^-5 M for most compounds. The reported endpoint is percent growth (GI% or GIPRCNT), where numbers from 0 - 100% represent growth inhibition, and numbers from -100% - 0 represent cell death. […]
The panel holds about 83,000 compounds, 20% with a hit somewhere; the sample as a whole holds those more often.
Express it in %; write the number only.

Example entries begin here.
CN=C(N)N/N=C(\C)c1ccc2c(c1)Cc1cc(/C(C)=N/NC(N)=NC)ccc1-2 ... -56.6
CN(C)c1ccc(/C=N/N=C(\C#N)[S][Sn]([Cl])([c]2ccccc2)[c]2ccccc2)cc1 ... 28.6
CC(C)(C)c1ccc(O)c(C2CCCCC2)c1 ... 98
O=[N+]([O-])c1ccc(N=Nc2ccc(O)cc2O)cc1 ... 55.1
CCN(CC)CCOc1ccc(-c2nc3cc(Cl)ccc3s2)cc1 ... -53.6
CN(C)c1ccc(C(=C2C=CC(=[N+](C)C)C=C2)c2ccc(N(C)C)cc2)cc1 (tested in a mixture with another compound) ... -49
O=C1C=CC(=O)N1C1c2ccccc2-c2ccccc21 ... 98.1
NC1=CC(=O)c2ccccc2C1=O ... 40.2

query: What does the record list as growth for N#CSCc1ccc(CSC#N)c(Cl)c1 ?
result: 85.1

query: Another molecule to check: C[N+](C)=c1ccc2nc3c(cc(NCCCNc4cc5oc6cc(=[N+](C)C)ccc-6nc5c5ccccc45)c4ccccc43)oc-2c1
result: -56.1
